Study System: Yer184c (UniProt P39961)
Sequence: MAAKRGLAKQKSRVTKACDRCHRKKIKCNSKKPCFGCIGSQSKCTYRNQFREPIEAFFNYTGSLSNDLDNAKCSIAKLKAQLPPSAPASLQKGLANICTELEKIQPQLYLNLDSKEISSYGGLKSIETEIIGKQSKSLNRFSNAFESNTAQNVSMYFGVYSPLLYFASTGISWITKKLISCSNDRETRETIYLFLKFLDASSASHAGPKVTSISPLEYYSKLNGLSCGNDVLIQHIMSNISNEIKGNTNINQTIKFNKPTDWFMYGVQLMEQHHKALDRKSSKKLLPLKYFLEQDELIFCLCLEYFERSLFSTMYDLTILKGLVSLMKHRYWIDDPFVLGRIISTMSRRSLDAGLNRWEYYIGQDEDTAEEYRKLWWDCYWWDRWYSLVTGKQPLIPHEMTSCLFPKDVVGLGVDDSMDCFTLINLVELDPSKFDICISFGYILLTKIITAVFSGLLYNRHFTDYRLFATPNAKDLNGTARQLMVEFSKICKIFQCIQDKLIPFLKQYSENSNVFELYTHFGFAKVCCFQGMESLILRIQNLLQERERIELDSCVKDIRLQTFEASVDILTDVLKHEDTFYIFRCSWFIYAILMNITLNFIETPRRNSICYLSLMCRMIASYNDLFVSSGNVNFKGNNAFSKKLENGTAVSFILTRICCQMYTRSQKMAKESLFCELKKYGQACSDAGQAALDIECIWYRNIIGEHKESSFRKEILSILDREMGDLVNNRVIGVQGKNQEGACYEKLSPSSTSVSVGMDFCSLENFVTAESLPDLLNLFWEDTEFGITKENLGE
Assay Protocol: PBM E-score (8-mer binding enrichment) (E-score (-0.5 to 0.5)); higher = stronger / more preferred TF binding
Setup Conditions: protein concentration: 100 nM; construct: GST-full length
In all, about 33,000 sequences were measured (“E-score (-0.5 to 0.5)”: median about -0.016, highest 2% from about 0.3 on). The full list was thinned out, with the highest values kept by preference.
Reported Endpoint: PBM E-score

- Sequence Record: "ACGGAATC"
  Observed Result: 0.301
- Sequence Record: "CCGCCAAA"
  Observed Result: 0.14
- Sequence Record: "AGGCTCAC"
  Observed Result: -0.273
- Sequence Record: "ACGGAATA"
  Observed Result: 0.321
- Sequence Record: "ATAATTAA"
  Observed Result: 0.323
- Sequence Record: "AGTAATAC"
  Observed Result: 0.106
- Sequence Record: "CCGCCGTA"
  Observed Result: 0.075
- Sequence Record: "AAAAGCCG"
  Observed Result: 0.244
- Sequence Record: "CCGTGCGA"
  Observed Result: 0.166
- Sequence Record: "GAAATTAA"
  Observed Result: 0.337
- Sequence Record: "AAGCTAAT"
  Observed Result: 0.162
- Sequence Record: "CAAATTAA"
  Observed Result: 0.0386
- Sequence Record: "GTAATTAA"
  Observed Result: 0.143
- Sequence Record: "CCGGAATC"
  Observed Result: 0.336
- Sequence Record: "CCCTCAAG"
  Observed Result: -0.297
- Sequence Record: "GCGGAATA"
  Observed Result: 0.205
- Sequence Record: "ATCATTAA"
  Observed Result: 0.307
- Sequence Record: "AGAGCTTA"
  Observed Result: 0.0135
- Sequence Record: "AGTAATAT"
  Observed Result: 0.338
- Sequence Record: "GGCCGGAA"
  Observed Result: 0.338
- Sequence Record: "ATTCCCAC"
  Observed Result: -0.171
- Sequence Record: "GGCCGGAC"
  Observed Result: 0.294
- Sequence Record: "CGCCGGAG"
  Observed Result: 0.222
- Sequence Record: "AATAATAG"
  Observed Result: 0.00819
- Sequence Record: "CTGGAATC"
  Observed Result: -0.192
- Sequence Record: "ATAATTAG"
  Observed Result: 0.203
- Sequence Record: "ACTCTGGC"
  Observed Result: -0.105
- Sequence Record: "CGATGCTA"
  Observed Result: 0.084
- Sequence Record: "CGCATGAA"
  Observed Result: 0.0183
- Sequence Record: "GGGCGGAA"
  Observed Result: 0.0682
- Sequence Record: "AATAATAT"
  Observed Result: 0.333
- Sequence Record: "ATCATTAG"
  Observed Result: 0.037
- Sequence Record: "CCGCCGAA"
  Observed Result: 0.313
- Sequence Record: "GGACGGAA"
  Observed Result: 0.0833
- Sequence Record: "ACAACCGA"
  Observed Result: 0.261
- Sequence Record: "ACGCCGCG"
  Observed Result: 0.0694
- Sequence Record: "CCTCTTCA"
  Observed Result: -0.18

---

Measured PBM E-score, listed per entry.
Study System: Yer184c (UniProt P39961)
Sequence: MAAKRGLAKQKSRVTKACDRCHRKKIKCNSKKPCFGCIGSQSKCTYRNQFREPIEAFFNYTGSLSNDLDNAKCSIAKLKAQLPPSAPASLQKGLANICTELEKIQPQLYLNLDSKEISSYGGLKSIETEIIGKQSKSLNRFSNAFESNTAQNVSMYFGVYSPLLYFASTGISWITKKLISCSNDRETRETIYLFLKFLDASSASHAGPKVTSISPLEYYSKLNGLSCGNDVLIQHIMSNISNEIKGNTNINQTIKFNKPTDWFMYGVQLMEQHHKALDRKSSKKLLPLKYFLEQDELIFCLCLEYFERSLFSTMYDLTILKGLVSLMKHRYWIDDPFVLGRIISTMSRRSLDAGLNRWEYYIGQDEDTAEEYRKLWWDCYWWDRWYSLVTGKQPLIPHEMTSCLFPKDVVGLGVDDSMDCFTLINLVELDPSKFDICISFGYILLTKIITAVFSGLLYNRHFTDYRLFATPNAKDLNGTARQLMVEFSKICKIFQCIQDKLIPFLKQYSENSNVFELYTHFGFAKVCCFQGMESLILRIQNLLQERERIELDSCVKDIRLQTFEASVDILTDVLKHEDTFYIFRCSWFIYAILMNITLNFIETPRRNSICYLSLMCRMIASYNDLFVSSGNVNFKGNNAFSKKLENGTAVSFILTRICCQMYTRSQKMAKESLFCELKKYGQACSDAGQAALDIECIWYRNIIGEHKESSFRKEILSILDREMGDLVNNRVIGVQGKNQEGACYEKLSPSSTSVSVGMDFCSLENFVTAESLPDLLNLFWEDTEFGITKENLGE
Assay Protocol: PBM E-score (8-mer binding enrichment) (E-score (-0.5 to 0.5)); higher = stronger / more preferred TF binding
Setup Conditions: protein concentration: 100 nM; construct: GST-full length
The full ranking holds about 33,000 sequences; the median of “E-score (-0.5 to 0.5)” is about -0.016, and the highest 2% start at about 0.3. The sample as a whole holds a higher share of the highest values than the screen did.

- Sequence Record: "GCCGATAC"
  PBM E-score: 0.13
- Sequence Record: "AAAGCTTT"
  PBM E-score: 0.237
- Sequence Record: "AAGCGCCT"
  PBM E-score: -0.14
- Sequence Record: "CCCGAGGC"
  PBM E-score: -0.013
- Sequence Record: "CAATTAAG"
  PBM E-score: 0.21
- Sequence Record: "CGGGCTAA"
  PBM E-score: 0.0904
- Sequence Record: "GCTACCGA"
  PBM E-score: 0.0575
- Sequence Record: "ACCGAGCC"
  PBM E-score: 0.221
- Sequence Record: "ACCTTACG"
  PBM E-score: 0.00591
- Sequence Record: "CAACGCCG"
  PBM E-score: 0.294
- Sequence Record: "GCCGAATA"
  PBM E-score: 0.361
- Sequence Record: "CCCGAAAA"
  PBM E-score: 0.263
- Sequence Record: "GCCGAAAC"
  PBM E-score: 0.34
- Sequence Record: "CCCGAGGA"
  PBM E-score: 0.0175
- Sequence Record: "AAGCGTGT"
  PBM E-score: -0.217

---

Study System: Yer184c (UniProt P39961)
Sequence: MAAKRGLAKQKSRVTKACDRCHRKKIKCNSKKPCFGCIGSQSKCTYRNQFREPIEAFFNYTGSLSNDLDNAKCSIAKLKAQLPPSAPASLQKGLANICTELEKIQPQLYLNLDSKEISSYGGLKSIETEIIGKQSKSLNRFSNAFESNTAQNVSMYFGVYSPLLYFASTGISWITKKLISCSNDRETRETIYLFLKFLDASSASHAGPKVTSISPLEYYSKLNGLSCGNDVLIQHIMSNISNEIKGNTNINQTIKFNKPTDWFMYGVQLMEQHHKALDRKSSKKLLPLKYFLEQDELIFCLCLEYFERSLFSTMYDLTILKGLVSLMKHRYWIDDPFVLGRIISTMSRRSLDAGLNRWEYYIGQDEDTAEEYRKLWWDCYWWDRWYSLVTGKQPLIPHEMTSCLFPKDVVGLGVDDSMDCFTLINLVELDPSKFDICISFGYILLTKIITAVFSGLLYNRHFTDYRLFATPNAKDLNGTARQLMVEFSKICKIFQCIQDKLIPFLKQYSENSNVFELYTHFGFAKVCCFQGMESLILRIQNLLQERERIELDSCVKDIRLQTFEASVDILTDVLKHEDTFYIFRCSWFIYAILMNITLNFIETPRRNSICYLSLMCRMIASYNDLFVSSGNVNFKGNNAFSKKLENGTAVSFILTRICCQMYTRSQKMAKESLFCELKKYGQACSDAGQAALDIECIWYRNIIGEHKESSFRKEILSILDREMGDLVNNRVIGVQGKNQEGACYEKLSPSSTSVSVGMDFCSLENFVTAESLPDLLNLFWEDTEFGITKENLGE
Assay Protocol: PBM E-score (8-mer binding enrichment) (E-score (-0.5 to 0.5)); higher = stronger / more preferred TF binding
Setup Conditions: protein concentration: 100 nM; construct: GST-full length
Over roughly 33,000 sequences, “E-score (-0.5 to 0.5)” has its median near -0.016; the highest 2% begin near 0.3. The list comes from a sample in which the highest values are over-represented; it also holds close analogues and randomly drawn sequences.
# PBM E-score per record follows
Reported Endpoint: PBM E-score

- Sequence Record: "AGCCGACT"
  Study System: "Yer184c (UniProt P39961)"
  Observed Result: -0.00308
- Sequence Record: "CCCGGCAG"
  Study System: "Yer184c (UniProt P39961)"
  Observed Result: 0.131
- Sequence Record: "AGCCGAAT"
  Study System: "Yer184c (UniProt P39961)"
  Observed Result: 0.392
- Sequence Record: "CGCCGAAA"
  Study System: "Yer184c (UniProt P39961)"
  Observed Result: 0.293
- Sequence Record: "GGCCGAAC"
  Study System: "Yer184c (UniProt P39961)"
  Observed Result: 0.305
- Sequence Record: "GTTAGACA"
  Study System: "Yer184c (UniProt P39961)"
  Observed Result: 0.222
- Sequence Record: "CCTTGCCG"
  Study System: "Yer184c (UniProt P39961)"
  Observed Result: 0.124
- Sequence Record: "TCCTTACA"
  Study System: "Yer184c (UniProt P39961)"
  Observed Result: -0.0191
- Sequence Record: "ATGCACCC"
  Study System: "Yer184c (UniProt P39961)"
  Observed Result: -0.147
- Sequence Record: "GCGGAACA"
  Study System: "Yer184c (UniProt P39961)"
  Observed Result: 0.237
- Sequence Record: "CTCGCTTC"
  Study System: "Yer184c (UniProt P39961)"
  Observed Result: -0.0232
- Sequence Record: "CGGCGCCA"
  Study System: "Yer184c (UniProt P39961)"
  Observed Result: 0.162
- Sequence Record: "ACCCAGTG"
  Study System: "Yer184c (UniProt P39961)"
  Observed Result: -0.306
- Sequence Record: "AAACGCCG"
  Study System: "Yer184c (UniProt P39961)"
  Observed Result: 0.334
- Sequence Record: "AAGCGCTA"
  Study System: "Yer184c (UniProt P39961)"
  Observed Result: 0.0496
- Sequence Record: "CGGCGCCG"
  Study System: "Yer184c (UniProt P39961)"
  Observed Result: 0.443
